# credit: patent US20250235453A1

- system: Rac1 (Homo sapiens)
- Construct: His (N)
- test_method_notes: Rac Activation AlphaScreen Assay (Rac1 AS)
- Format: biochemical
- assay_conditions: Rac1 AS assay, dose leading to 50% disruption of complex; read-out: IC50
List of IC50 values.

Use the examples below as a reference point.
Cc1ccc(-c2nnc3ccc(-c4cccc(NC(=O)c5ccc(F)c(F)c5)c4)nn23)o1 ... < 10 µM
O=C(Cc1cccnc1Cl)Nc1ccc(-c2ccc3nnc(-c4ccccn4)n3n2)cc1 ... < 10 µM
Cc1ccccc1CC(=O)Nc1ccc(-c2ccc3nnc(-c4ccncc4)n3n2)cc1 ... 10 to 50 µM
O=C(Cc1cccs1)Nc1cccc(-c2ccc3nnc(-c4cccnc4)n3n2)c1 ... < 10 µM
Cc1ccc(-c2nnc3ccc(-c4cccc(NC(=O)c5ccc(F)c(Br)c5)c4)nn23)o1 ... < 10 µM

[Q] Data request, read-out IC50, for O=C(Nc1cccc(-c2ccc3nnc(-c4cccnc4)n3n2)c1)c1ccc2ccccc2c1
[A] 10 to 50 µM

[Q] COc1cccc(C(=O)Nc2cccc(-c3ccc4nnc(-c5ccc(C)o5)n4n3)c2)c1 ?
[A] < 10 µM

[Q] Cc1ccc(-c2nnc3ccc(-c4cccc(NC(=O)c5ccc(F)c(C)c5)c4)nn23)o1 ?
[A] < 10 µM
